# ASSAY OVERVIEW: Acute toxicity, LD50 in mice by different routes
# Assay type: in vivo
# APPLIED CONDITIONS: mouse, in vivo, ip; souris, I.P.; read-out: DL 50 (the source's name)
OBSERVATION TYPE: LD50 (mg/kg)

MOLECULE: CCN1CCCC1CNC(=O)c1cc(S(N)(=O)=O)ccc1OC (stereo not shown) [Sulpiride, reference compound]
REPORTED VALUE: 210
